meta.source: patent US8840891

target: T1, TSHR coated onto tubes (human, UniProt P16473 21-764, limits assumed); test: TSHR coated tubes, competitor 125I-M22 IgG
T1 construct: whole entry named; also called TSHR coated tubes; thyrotropin receptor
Experimental Endpoint: % inhib of 125I-M22 IgG binding at 1 µg/mL (%)
Your answer should be a plain number; it is taken to be in %.

[Q] # get_value(readout='% inhib of 125I-M22 IgG binding at 1 µg/mL', item= 14D3 IgG (antibody, V domains shown) VH: DVQMQQPGPELVKPGASLKMSCKASGYSFTGYNMHWVKQSHGKSLEWIGYIDPYSGATSYNQKFEGKATLTVDKSSSTAYMQLNSLTSEDSAVYYCARRWDWDPYAMDYWGQGTSVTVSS VL: NILMTQSPAILSVSPGERVSFACRASQSIGTSIHWYQQRTNGSPRLLIKYASESISGIPSRFSGSGSGTDFTLSINSVESEDIADYYCQQTNRWPLTFGAGTKLELKR )
[A] 37

[Q] What would you report for 2B4 IgG (antibody, V domains shown) VH: DVQLQQSGTVLARPGASVRMSCKASGYSFTRYWIHWLKQRPGQGLEWIGAIFPGNRDTSYNQRFKGKAEVTAVTSASTAYLDLSSLTNEDSAVYYCTRWPYYGSIYVNFDYWGQGTTLTVSS VL: DIVMTQSPLSLPVSLGDQASISCRTSQNLVHRNGNTYLHWYLQKPGQSPKLLIYKISNRFSGVPDRFSGSGSGTDFTLKISRVEAEDLGVYFCSQGTHVPPTFGGGTKLEIKR ?
[A] 9
